- System: myeloid leukemia patient primary cells Pat.7
- assay notes: cell viability (% survival relative to DMSO control); higher = less cytotoxic
- assay context: 10 nM; 72 h
Below is a list of entries, each paired with its recorded cell viability value.

| compound | cell viability |
| --- | --- |
| COc1c(C)c2c(c(O)c1C/C=C(\C)CCC(=O)O)C(=O)OC2 | 94.8% |
| C[C@H]1O[C@@H](O[C@H]2[C@@H](O)C[C@H](O[C@H]3[C@@H](O)C[C@H](O[C@H]4CC[C@@]5(C)[C@H](CC[C@@H]6[C@@H]5C[C@@H](O)[C@]5(C)[C@@H](C7=CC(=O)OC7)CC[C@]65O)C4)O[C@@H]3C)O[C@@H]2C)C[C@H](O)[C@@H]1O | 86.8% |
| CC(Cc1ccc(O)c(O)c1)C(C)Cc1ccc(O)c(O)c1 (configuration not stated) | 85.3% |
| Sc1ncnc2nc[nH]c12 | 78.2% |
| Clc1ccc(COC(Cn2ccnc2)c2ccc(Cl)cc2Cl)cc1 (configuration not stated) | > 100% |
| Cc1noc2c1-c1ccccc1C(c1ccc(Cl)cc1)=N[C@H]2CC(N)=O | 97.1% |
| CCOC(=O)N1c2ccc(C(F)(F)F)cc2[C@@H](N(Cc2cc(C(F)(F)F)cc(C(F)(F)F)c2)C(=O)OC)C[C@H]1CC | 58.4% |
